tested on: L1210 leukemia; test: L1210 leukemia survival time evaluation in BDF1 mice; conditions: 6.25 mg/kg, day 1, QDX4 ip
attribute measured: Day 6 AWC

Would you please look over these solved cases?
COc1cc(O)c2c(=O)c3cccc(OC)c3n(C)c2c1OC [Compound 17, 5-O-Methyl-citrusinine-I]; +1.8 g
Cn1c2c(O)cccc2c(=O)c2c(O)cc3c(c21)C=CC(C)(C)O3 [Compound 37, 11-Hydroxy-noracronycine]; +2.0 g
COc1c(OC)c(OC)c2c(c1O)c(=O)c1ccc(O)c(OC)c1n2C [Compound 31, Glyfoline]; +1.8 g

Next item in the queue.
Input CC1(C)C=Cc2c(cc(O)c3c(=O)c4cccc(O)c4[nH]c23)O1 [Compound 34, Atalaphyllidine] . Output Day 6 AWC: +1.7 g

---

tested on: RNA synthesis in HL-60 cells; experiment: Inhibition of [5-3H]Cyd incorporation into RNA of HL-60 cells; assay type: cell-based, human; conditions: Homo sapiens, HL-60, 0.5 h, at 0.03 mg/mL; read-out: % Inhibition of Precursor Incorporation, RNA
Mark false for inhibition at 30 µg/mL values under 50%, and true for everything at or above.

Illustrative cases are given below, each with its answer.
COc1ccc2c(=O)c3c(O)cc4c(c3n(C)c2c1OC)C=CC(C)(C)O4; true
COc1cc(O)c2c(=O)c3ccccc3n(C)c2c1CC=C(C)C; true
COc1ccc2c(=O)c3c(OC)cc4c(c3n(C)c2c1OC)C=CC(C)(C)O4; false
COc1cc(O)c2c(=O)c3ccc(O)c(OC)c3n(C)c2c1CC=C(C)C; true
COc1cc(O)c2c(=O)c3ccccc3n(C)c2c1 [Compound 7, 1-Hydroxy-3-methoxy N-methyl acridone]; false

Check this compound for inhibition at 30 µg/mL at or above 50%: "COc1cc(O)c2c(=O)c3cccc(OC)c3n(C)c2c1OC"
true

Could you verify whether the entry "CC(C)=CCc1c2c(c3c(c1O)c(=O)c1ccccc1n3C)C=CC(C)(C)O2" shows inhibition at 30 µg/mL of no less than 50%?
false

---

test system: L1210/0 cells; experiment: Cross-resistance studies: growth inhibition of doxorubicin-sensitive L1210/0 cells; format: cell-based; settings: L1210/0 (doxorubicin sensitive)
attribute measured: pIC50
Give only the number. pIC50 is defined as minus log10 of concentration in molar units.

COc1cccc2c1C(=O)c1c(O)c3c(c(O)c1C2=O)C[C@@](O)(C(=O)CO)C[C@@H]3O[C@H]1C[C@H](N)[C@H](O)[C@H](C)O1; 7.55

# next compound below
Per the records, this compound ( "COc1c(OC)c(OC)c2c(c1O)c(=O)c1ccc(O)c(OC)c1n2C" ) has pIC50 equal to 5.68

---

system: DNA synthesis in HL-60 cells; assay: Inhibition of [3H-methyl]dThd incorporation into DNA of HL-60 cells; type: cell-based, human; conditions: at 0.03 mg/mL
attribute measured: % Inhibition of Precursor Incorporation, DNA (%)
Answer format: numeric, % implied, no suffix.

Some solved cases for reference:
COc1cccc2c(=O)c3c(O)cc4c(c3n(C)c12)C=CC(C)(C)O4; 98.9
COc1cc(O)c2c(=O)c3ccc(O)c(OC)c3n(C)c2c1; 65.0

// recorded % Inhibition of Precursor Incorporation, DNA for CC(C)=CCc1c(O)c(C2CC(C)(C)Oc3cc(O)c4c(=O)c5ccccc5[nH]c4c32)c(O)c2c(=O)c3ccccc3n(C)c12 (stereo not shown) : -27.8

// % Inhibition of Precursor Incorporation, DNA value for "COc1cc(OC)c2c(=O)c3ccc(OC)c(OC)c3n(C)c2c1" : 93
